Attribution: the RNAGym collection of RNA variant scans (doi:10.1021/acssynbio.7b00057)

B1: Pistol ribozyme (parent)
chain: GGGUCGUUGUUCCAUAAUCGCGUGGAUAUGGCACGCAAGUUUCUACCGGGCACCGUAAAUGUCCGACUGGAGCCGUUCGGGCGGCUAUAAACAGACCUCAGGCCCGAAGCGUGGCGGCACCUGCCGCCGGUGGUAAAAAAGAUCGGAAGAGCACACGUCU

- Variants of: B1
- RUN_DESCRIPTION: aptazyme ON/OFF ratio, guanine; higher = stronger switching; co-transcriptional cleavage with and without guanine
READOUT: aptazyme ON/OFF ratio

                        change  value
0        U7G U8C G9C U11G C12U   1.66
1   U7C U8G G9U U10A U11G C12G   1.23
2            U7A U8A U10G C13A   1.31
3  U8C G9A U10G U11A C12U C13U   1.17
4               U10C U11C C13G   1.07
5  U7G U8G U10C U11C C12A C13U   1.22
6           G9C U11C C12G C13A   1.13
7            U7C G9A U11G C12A   1.08
8   U7C U8C G9C U10C U11C C13U  0.989
